apparent Kd (screen) reference
# Assay target: T1, TNFR1 (Homo sapiens, UniProt P19438)
# T1 chain: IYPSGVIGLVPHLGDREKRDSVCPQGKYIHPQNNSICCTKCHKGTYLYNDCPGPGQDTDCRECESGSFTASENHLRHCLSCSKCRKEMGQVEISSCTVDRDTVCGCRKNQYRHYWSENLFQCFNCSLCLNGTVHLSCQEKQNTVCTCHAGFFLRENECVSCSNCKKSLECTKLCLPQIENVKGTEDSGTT
# Assay notes: yeast display SC50
Answer with a number only, understood to be in nM.

Binder	Experimental value
M2T (designed binder) STEEEVEKAAKEYEKKKKEAIEKHLEKLKAKDKEAAERFLKELEEAAKEYAKDEAKTMSEEEAKRRAKKYKEKVLLSELSEEEQKEIKEAEEKLVRTILKYVEEAAK	0.446

# apparent Kd (screen) lookup, item M58V (designed binder) SMEEEVEKAAKEYEKKKKEAIEKHLEKLKAKDKEAAERFLKELEEAAKEYAKDEAKTVSEEEAKRRAKKYKEKVLLSELSEEEQKEIKEAEEKLVRTILKYVEEAAK 2.25

# apparent Kd (screen) lookup, item E22P (designed binder) SMEEEVEKAAKEYEKKKKEAIPKHLEKLKAKDKEAAERFLKELEEAAKEYAKDEAKTMSEEEAKRRAKKYKEKVLLSELSEEEQKEIKEAEEKLVRTILKYVEEAAK 12.5

# apparent Kd (screen) lookup, item L25I (designed binder) SMEEEVEKAAKEYEKKKKEAIEKHIEKLKAKDKEAAERFLKELEEAAKEYAKDEAKTMSEEEAKRRAKKYKEKVLLSELSEEEQKEIKEAEEKLVRTILKYVEEAAK 0.956

Origin of values: paper PMC12416549
